All figures here come from PubChem BioAssay (NCI).

Tested on: SK-MEL-28 melanoma
Experimental Details: NCI tumour cell line growth inhibition, 48 h; in the data active = GI50 below about 0.43 µM; inactive = the rest
// classify into active, inactive

Recorded results for 8 compounds are shown here.
Compound	Class Assignment
COc1ccc(/C=C/C(=O)c2cccc(B(O)O)c2)cc1O	inactive
Cc1c(C(=O)O)n(-c2ccc(Cl)cc2)c2ncnc(N)c12	inactive
COC(=O)C1=C(O)[C@H](C(=O)OC)C2(O)[C@@H](C(=O)OC)[C@H]1C[C@@H](c1ccc(OC(=O)n3ccnc3)cc1)[C@@H]2C(=O)OC	inactive
Cc1cc(Nc2cccc(F)c2)nc(NCc2ccccc2)n1	inactive
O=C(C[Si](CC(=O)c1cccc(C(F)(F)F)c1)CC(=O)c1cccc(C(F)(F)F)c1)c1cccc(C(F)(F)F)c1	inactive
O=C1c2ccccc2C(=O)c2c(N=Nc3[nH]c(=S)[nH]c3O)cccc21	inactive
COc1ccc2nc3cc(Cl)ccc3c(NCCCCCN3CCCCC3)c2c1	inactive
COc1cccc(/C=N/Nc2ncnc3c2cnn3-c2cccc(OC)c2)c1	inactive

What call does the record list for COC(=O)C(N)CSC(c1ccccc1)(c1ccccc1)c1ccccc1 (stereo unspecified) ?
inactive

What call does the record list for `Cc1c2cnccc2c(C)c2c1c1cc(CO)ccc1n2C` ?
active

What call does the record list for `O[N+]1=CC=CCC1=S.On1ccccc1=S.[Zn]` ?
inactive

---

Test system: TK-10 renal
Experimental Details: NCI tumour cell line growth inhibition, 48 h; in the data active means GI50 below about 0.43 µM; inactive means the rest
// classify into active, inactive

Recorded results for 2 molecules are shown here.
Smiles Text	Class Assignment
Cc1c(C(=O)O)n(-c2ccc(Cl)cc2)c2ncnc(N)c12	inactive
Cc1c2cnccc2c(C)c2c1c1cc(CO)ccc1n2C	inactive

What call does the record list for `NC(=O)c1cccc(N2Cc3ccccc3OC3=C2C(=O)c2c(O)ccc(O)c2C3=O)c1` ?
active

---

Property: TGI; scope: individual molecules
Tested on: SF-295 CNS
Experimental Details: NCI tumour cell line growth inhibition, 48 h

Examples from the recorded data:
Molecule	Target Of Assay	TGI
COc1ccc(/C=C/C(=O)c2cccc(B(O)O)c2)cc1O	SF-295 CNS	13.2 µM
C=CC(=O)NC(O)(C(=O)OCC)C(F)(F)F (stereo not drawn)	SF-295 CNS	> 100 µM
COc1ccc(C(=O)/C=C2\C(=O)Nc3ccc(Br)cc32)cc1	SF-295 CNS	30.6 µM
CC(=O)c1cc2c(c(O)c1C)C(=O)C(=O)c1c(O)cccc1-2	SF-295 CNS	0.763 µM

Tell me the measured TGI of `CN(C)CCNc1ccc2c(=O)n(CCN(C)C)c(=O)n3c4ccccc4c(=O)c1c23` , please.
0.516 µM

Tell me the measured TGI of `CN1CCc2c(sc3ncn(N)c(=N)c23)C1` , please.
> 100 µM

Tell me the measured TGI of `COC(=O)[C@@H](C[C@H](Cc1ccccc1)NC(=O)c1csc([C@@H](C[C@H](C(C)C)N(C)C(=O)[C@@H](NC(=O)[C@H]2CCCCN2C)C(C)C)OC(C)=O)n1)NC(=O)OCc1ccccc1` , please.
> 8.33 µM

Tell me the measured TGI of O=C1OC2C(O)COC2(O)C1(O)Cc1c[nH]c2ccccc12 (stereo not drawn) , please.
> 100 µM

Tell me the measured TGI of NC1CSc2ccccc2NC1=O (stereo not drawn) , please.
> 100 µM

Tell me the measured TGI of `COc1ccc2nc3cc(Cl)ccc3c(NCCCCCN3CCCCC3)c2c1` , please.
1.91 µM

Tell me the measured TGI of CC(C)=CC1CCc2ccccc2N1S(=O)(=O)c1ccc(C)cc1 (stereo not drawn) , please.
> 21.4 µM

Tell me the measured TGI of `COc1cc(-c2cc(=O)c3c(OC)c(OC)c(OC)c(OC)c3o2)cc(OC)c1OC` , please.
> 100 µM

Tell me the measured TGI of COC(=O)C1CC2C=CC1N(C(=O)OCc1ccccc1)C2 (stereo not drawn) , please.
> 100 µM

---

Property: TGI; scope: individual molecules
System: KM12 colon
Experimental Details: NCI tumour cell line growth inhibition, 48 h

Molecule	Target Of Assay	TGI
O=C(Nc1ccn(CCOC(=O)c2ccccc2)c(=O)n1)c1ccccc1	KM12 colon	> 100 µM

Param readout= TGI; system= KM12 colon; entry= OC1CC2CCCN(CCc3c1[nH]c1ccccc31)C2 (stereo unspecified) ; returns value.
> 100 µM

Param readout= TGI; system= KM12 colon; entry= `COc1cccc2c1-c1ccccc1C2=O` ; returns value.
> 100 µM

Param readout= TGI; system= KM12 colon; entry= `NC(=O)N/N=C\c1ccccc1OCc1cccc(COc2ccccc2/C=N\NC(N)=O)n1` ; returns value.
> 100 µM

---

Test system: UACC-62 melanoma
Experimental Details: NCI tumour cell line growth inhibition, 48 h
Property: GI50; scope: individual molecules

Molecule	Target Of Assay	Experimental Endpoint	Assay Value
CC(=O)[CH-]C(C)=O.CC(=O)[CH-]C(C)=O.[CH2-]CCCCCCC.[CH2-]CCCCCCC.[Sn+4]	UACC-62 melanoma	GI50	15.6 µM
Cc1cc(Nc2cccc(F)c2)nc(NCc2ccccc2)n1	UACC-62 melanoma	GI50	5.61 µM
CN1CCN(c2ccc3nc(-c4c5cccccc-5[nH]c4=O)[nH]c3c2)CC1	UACC-62 melanoma	GI50	19.6 µM

Tell me the measured GI50 of Nc1ccn(C2OC(CO)C3[O][Sn]([c]4ccccc4)([c]4ccccc4)[O]C32)c(=O)n1 (stereo unspecified) , please.
6.36 µM

Tell me the measured GI50 of Clc1ccc(/C=C2\CCCC3C2=Nc2ccccc2NC3c2ccc(Cl)cc2)cc1 (stereo unspecified) , please.
6.7 µM

Tell me the measured GI50 of `C[C@@H](O)[C@H]1C(=O)N2C(C(=O)O)=C(SCCN=CN)C[C@H]12` , please.
1.72 µM

---

Tested on: T-47D breast
Experimental Details: NCI tumour cell line growth inhibition, 48 h
Property: TGI; scope: individual compounds

Examples from the recorded data:
Smiles Text	TGI
CC(C)c1cc(C(F)(F)F)nc(NNc2nc(C(C)C)cc(C(F)(F)F)n2)n1	> 100 µM
COc1ccc(C=Nc2c(O)ccc3ccccc23)cc1OC	> 100 µM

Okay, now this compound:
Tell me the measured TGI of `COc1cc(O)c2c(=O)c(OC)c(-c3ccc(OC)c(OC)c3)oc2c1.[Co]` , please.
> 100 µM

---

System: NCI-H23 lung
Experimental Details: NCI tumour cell line growth inhibition, 48 h
Property: TGI; scope: individual compounds

Examples from the recorded data:
Smiles Text	TGI
Cn1c(=O)c2c(nc3sc4nc5ccccc5nc4n32)n(C)c1=O	> 100 µM
N=C(N)SCCc1ccncc1	> 100 µM
O=C1CCC(O)=C1N=Nc1cc(Cl)cc(Cl)c1	> 100 µM
Cc1cc(-c2no[n+]([O-])c2-c2cc(C)sc2S(C)(=O)=O)c(S(C)(=O)=O)s1	> 100 µM

Okay, now this compound:
Tell me the measured TGI of `COc1cccc(/C=N/Nc2ncnc3c2cnn3-c2cccc(OC)c2)c1` , please.
> 25 µM

---

Tested on: HOP-62 NSCLC
Experimental Details: NCI tumour cell line growth inhibition, 48 h
Experimental Endpoint: TGI

Examples from the recorded data:
Compound	TGI
COC(=O)C1=C2SCc3ccc(cc3)CSC3=C(C(=O)OC)SC(=C(S2)S1)S3	> 100 µM
NC1CSc2ccccc2NC1=O (stereo unspecified)	> 100 µM
CC(C)(C)OC(=O)N1CCCC1=O	> 10 µM
CCOc1cc2c[n+](C)c3c4cc(OC)c(OC)cc4ccc3c2cc1OC	> 100 µM
C[C@@H]1CCC[C@]2(C)O[C@H]2CC[C@@](C)(O)[C@@H]2CC3=C(CO)C(=O)O[C@H]3[C@H]1O2	> 50 µM

Okay, now this compound:
Tell me the measured TGI of `CCOC(=O)c1cc(NC(=O)N(CCC#N)CCN(C(=O)N[C@@H](Cc2ccccc2)C(=O)N[C@@H](CC(C)C)C(=O)NC)c2ccccc2)ccc1OC` , please.
> 100 µM

---

Tested on: HT29 colon
Experimental Details: NCI tumour cell line growth inhibition, 48 h; in the data active = GI50 below about 0.43 µM; inactive = the rest
// classify into YES (active), NO (inactive)

Recorded results for 3 compounds are shown here.
Compound	Class Assignment
O=C(N/N=C\c1c(O)ccc2ccccc12)C1CC1	NO
COc1ccc(/C=N/C2=C(C#N)C(c3ccccc3)c3c(ccc4ccccc34)O2)cc1 (stereo not given)	NO
CCN(CC)CCOc1ccc(/C=C2\CC3C4CC=C5C[C@@H](N6CCCC6)CC[C@]5(C)C4CC[C@]3(C)[C@H]2OC(C)=O)cc1OC (stereo not given in full)	YES

What call does the record list for Clc1ccc(/C=C2\CCCC3C2=Nc2ccccc2NC3c2ccc(Cl)cc2)cc1 (stereo not given) ?
NO

What call does the record list for `Cn1cc(C2=C(c3cn(CCCO)c4ccccc34)C(=O)NC2=O)c2ccccc21` ?
NO
